Each entry below lists one item and its recorded calcium oscillation score value.
assay: rat primary cortical neurons, FLIPR, 25 uM ASO
Bases are written 5' to 3'; sugars and linkages follow in the same order, as letters with counts (s phosphorothioate, o phosphodiester; PS: all linkages phosphorothioate). The collection does not say whether C is 5-methylated. l = locked nucleic acid (LNA); d = 2'-deoxy (DNA)

>>> result("CCAAATCTTATAATAACTAC (sugars ldlllddddddddddlldll, PS)")
"80.2 % of control"

Incoming: Using the record for CAAACTTATATCTTTCAAAC (sugars l4 d12 l4, PS) , report its calcium oscillation score.
Outgoing: 78.3 % of control

Incoming: Record request: calcium oscillation score value, item CTAAATCCTTAATATCAAAC (sugars l4 d12 l4, PS)
Outgoing: 79.3 % of control

Incoming: What calcium oscillation score value was documented for this sequence, CACAACTATTAAATACCAAC (sugars l3 d14 l3, PS) ?
Outgoing: 83.8 % of control

Incoming: What value of calcium oscillation score has been recorded for this entry: TACTCAAATATAACACCAAC (sugars l3 d14 l3, PS)
Outgoing: 85.6 % of control

Incoming: Give the measured calcium oscillation score of TAACTAACTTAACTCAAC (sugars l3 d12 l3, PS) .
Outgoing: 74.7 % of control

Incoming: Reported calcium oscillation score, sequence TACCATACAATAACTTTAAC (sugars l3 d14 l3, PS) : ____
Outgoing: 76.5 % of control

Incoming: # get_value(readout='calcium oscillation score', item= CTAATATTATAACCATCAAC (sugars l3 d14 l3, PS) )
Outgoing: 82 % of control

====

molecular target: Tau; test: rat primary cortical neurons, FLIPR, 25 uM ASO
Bases are written 5' to 3'; sugars and linkages follow in the same order, as letters with counts (s phosphorothioate, o phosphodiester; PS: all linkages phosphorothioate). The collection does not say whether C is 5-methylated. l = locked nucleic acid (LNA); d = 2'-deoxy (DNA)
observed_property: calcium oscillation score

>>> result("TCCTCACTTTACACATTAA (sugars l4 d13 l2, PS)")
"62.5 % of control"
>>> result("ATTTCCAAATTCACTTTTAC (sugars ldlllddddddddddlldll, PS)")
"143 % of control"
>>> result("ACTTTCCTAATTCCCAAATT (sugars l3 d15 l2, PS)")
"63.3 % of control"
>>> result("GTCAGCTAGCGTGGCG (sugars l3 d10 l3, PS)")
"27.6 % of control"
>>> result("TGGTTTATGATGGATGTTGC (sugars l3 d14 l3, PS)")
"0 % of control"

Incoming: So what does the record say about calcium oscillation score for TAATAGATCTTTCCCCTC (sugars l2 d13 l3, PS) ?
Outgoing: 101 % of control

====

calcium oscillation score by entry:
target: Tau; assay: rat primary cortical neurons, FLIPR, 25 uM ASO
Bases are written 5' to 3'; sugars and linkages follow in the same order, as letters with counts (s phosphorothioate, o phosphodiester; PS: all linkages phosphorothioate). The collection does not say whether C is 5-methylated. l = locked nucleic acid (LNA); d = 2'-deoxy (DNA)

Example sequences with recorded calcium oscillation score:
>>> result("CAACTTTCATCTACTTTTCA (sugars l3 d14 l3, PS)")
"94.4 % of control"
>>> result("CAACAAACATCTAAACACCT (sugars l4 d13 l3, PS)")
"78.9 % of control"
>>> result("CACTGTTACACATTTA (sugars l4 d8 l4, PS)")
"70.6 % of control"

Incoming: Quick one: calcium oscillation score of CCACCCAAACTCCAAGTT (sugars l2 d14 l2, PS) ?
Outgoing: 52 % of control

Incoming: Consider the sequence TTGAGTTGAGGGACCC (sugars l3 d10 l3, PS) and give its measured calcium oscillation score.
Outgoing: 0 % of control

Incoming: Record request: calcium oscillation score value, item CTAATTCCCAAATTCCTCAT (sugars l3 d14 l3, PS)
Outgoing: 60.9 % of control

Incoming: // query calcium oscillation score value for entry CTTCTAATTTAGTCACC (sugars l3 d10 l4, PS)
Outgoing: 54.6 % of control
